For each entry below, report its chromatographic logD value.
# MEASUREMENT PROTOCOL: C18 chromatography (RP-HPLC), chromatographic hydrophobicity index
# Format: physicochemical
# DETAILS: Waters Symmetry C18 column; CHI log D = 0.0525 CHIC18 − 1.467; pH 7.4

Problem: Look up chromatographic logD: `O=S(=O)(Nc1ccc(Cl)cc1)c1ccc(-n2cccc2)cc1`
Result: 3.5

Problem: I am curious: what chromatographic logD value has been reported for `Cc1cc(S(=O)(=O)Nc2nnc(-c3ccccc3)c(=O)[nH]2)c(SCc2ccc(C(F)(F)F)cc2)cc1Cl` ?
Result: 2.88

Problem: What value of chromatographic logD has been recorded for this entry: `Cc1cc(S(=O)(=O)Nc2nnc(C)c(=O)[nH]2)c(SCc2cccc3ccccc23)cc1Cl`
Result: 2.33

Problem: Value lookup for chromatographic logD; key = `Cc1cc(S(=O)(=O)Nc2nncc(-c3ccc(C(F)(F)F)cc3)n2)c(SCc2ccc(C(F)(F)F)cc2)cc1Cl`
Result: 3.34

----------
# MEASUREMENT PROTOCOL: IAM chromatography (IAM-HPLC), IAM.PC.DD2 column
# Assay type: physicochemical
# DETAILS: logkIAM = 0.045 CHIIAM + 0.42; pH 7.4
READOUT LABEL: logkIAM
Reply briefly: the number, and no unit.

Problem: If you can, please state the reported logkIAM value of `Cc1ccnc(NS(=O)(=O)c2ccc(-n3cccc3)cc2)n1` .
Result: 1.28

Problem: Can you share its logkIAM? I mean this compound: `Cc1cc(S(=O)(=O)Nc2nnc(-c3ccccc3)c(=O)[nH]2)c(SCc2ccc(C(F)(F)F)cc2)cc1Cl`
Result: 2.07

Problem: Consider the compound shown here: `COc1ccc(-c2cnnc(NS(=O)(=O)c3cc(C)c(Cl)cc3SCc3ccc(C(F)(F)F)cc3)n2)cc1` What is its recorded logkIAM?
Result: 2.09

Problem: What does the data say about its logkIAM? Entry: `O=S(=O)(Nc1cccc2nsnc12)c1ccc(-n2cccc2)cc1`
Result: 1.83

Problem: Find the recorded logkIAM belonging to `Cc1cc(S(=O)(=O)Nc2nncc(-c3ccc(C(F)(F)F)cc3)n2)c(SCc2ccc(C(F)(F)F)cc2)cc1Cl` and report it.
Result: 2.28

Problem: Request the reported logkIAM associated with `Cc1cc(S(=O)(=O)Nc2nnc(Cc3ccccc3)c(=O)[nH]2)c(SCc2cc3c(cc2Cl)OCO3)cc1Cl`
Result: 2.02

Problem: Fill in: logkIAM of `COc1ccc(-c2cnnc(NS(=O)(=O)c3cc(C(=O)Nc4ccccc4)c(Cl)cc3SCc3ccccc3)n2)cc1` is ___
Result: 2.03

Problem: Data request, read-out logkIAM, for `O=S(=O)(Nc1cccc2cccnc12)c1ccc(-n2cccc2)cc1`
Result: 2.45

----------
Consider the following molecules; for each one, report its logkIAM.
# MEASUREMENT PROTOCOL: IAM chromatography (IAM-HPLC), IAM.PC.DD2 column
# Format: physicochemical
# DETAILS: logkIAM = 0.045 CHIIAM + 0.42; pH 7.4

Problem: Quick one: logkIAM of `Cc1ccc(NC(=O)c2cc(S(=O)(=O)Nc3nncc(-c4ccc(C(F)(F)F)cc4)n3)c(SCc3ccccc3)cc2Cl)cc1` ?
Result: 2.28

Problem: Any idea what its logkIAM is? The molecule is `Cc1cc(S(=O)(=O)Nc2nncc(-c3cccc(F)c3)n2)c(SCc2ccc(C(F)(F)F)cc2)cc1Cl`
Result: 2.14

Problem: If you can, please state the reported logkIAM value of `Cc1cc(S(=O)(=O)NC(=O)C=Cc2ccccc2)c(SCc2cccc3ccccc23)cc1Cl` .
Result: 2.20

Problem: Please report the recorded logkIAM for `Cc1cc(S(=O)(=O)Nc2nnc(Cc3ccccc3[N+](=O)[O-])c(=O)[nH]2)c(SCc2cc3c(cc2Cl)OCO3)cc1Cl` .
Result: 2.00

Problem: Which logkIAM value is on record for `COc1ccc(NC(=O)c2cc(S(=O)(=O)Nc3nncc(-c4ccc(OC)cc4)n3)c(SCc3ccccc3)cc2Cl)cc1` ?
Result: 1.99

Problem: Can you share its logkIAM? I mean this molecule: `Cc1cc(C)nc(NS(=O)(=O)c2ccc(-n3cccc3)cc2)n1`
Result: 1.51

Problem: What value of logkIAM has been reported for the following molecule? `CC(=O)NS(=O)(=O)c1cc(C)c(Cl)cc1SCc1cccc2ccccc12`
Result: 1.80
